assayed_system: Sigma non-opioid intracellular receptor 1 (Rattus norvegicus)
Sequence (Q9R0C9 whole entry): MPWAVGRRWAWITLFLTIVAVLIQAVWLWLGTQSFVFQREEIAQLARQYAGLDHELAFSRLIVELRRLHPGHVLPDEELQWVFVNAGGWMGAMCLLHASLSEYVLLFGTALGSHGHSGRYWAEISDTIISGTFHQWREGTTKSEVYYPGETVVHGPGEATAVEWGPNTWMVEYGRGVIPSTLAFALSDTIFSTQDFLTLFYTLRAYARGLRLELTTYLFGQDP
assay_remarks: Binding affinity to rat sigma 1 receptor
Exercise: for every item that follows, state its recorded pKi.
Numbers only, as −log10 of the molar value.

For each of the compounds below, state pKi.
1. CCCCN1CCC(COC(=O)c2cc(Cl)c(NC)c3c2OCCO3)CC1
2. CCCCN1CCC(COC(=O)c2cc(F)c(N)c3c2OCCO3)CC1
3. CCCCN1CCC(COC(=O)c2ccc(N)c(OC)c2)CC1

[7.22, 7.26, 6.68]

----------
For each entry below, report its Ki value.
Target sequence: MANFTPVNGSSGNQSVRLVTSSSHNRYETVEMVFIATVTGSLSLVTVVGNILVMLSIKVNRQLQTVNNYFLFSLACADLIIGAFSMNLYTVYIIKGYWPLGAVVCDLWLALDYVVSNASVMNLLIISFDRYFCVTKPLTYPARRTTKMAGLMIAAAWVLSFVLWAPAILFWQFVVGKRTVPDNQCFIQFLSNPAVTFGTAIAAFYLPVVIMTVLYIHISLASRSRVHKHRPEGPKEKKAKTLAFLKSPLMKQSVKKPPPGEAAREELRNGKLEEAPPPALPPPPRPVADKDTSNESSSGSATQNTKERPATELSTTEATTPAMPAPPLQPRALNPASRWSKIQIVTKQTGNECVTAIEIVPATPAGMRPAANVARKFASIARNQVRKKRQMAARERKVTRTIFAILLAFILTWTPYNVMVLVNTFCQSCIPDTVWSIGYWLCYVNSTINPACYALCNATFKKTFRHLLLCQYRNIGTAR
Numbers only, in nM.

smiles_repr	measured_value
CCCCN1CCC(COC(=O)c2cc(Cl)c(NC)c3c2OCCO3)CC1	760

Consider the additional compound presented here.
I have this compound here, CCCCN1CCC(COC(=O)c2ccc(N)c(OC)c2)CC1 , and I need its recorded Ki. 2580
